B1: library; numbered along this chain (parent)
chain: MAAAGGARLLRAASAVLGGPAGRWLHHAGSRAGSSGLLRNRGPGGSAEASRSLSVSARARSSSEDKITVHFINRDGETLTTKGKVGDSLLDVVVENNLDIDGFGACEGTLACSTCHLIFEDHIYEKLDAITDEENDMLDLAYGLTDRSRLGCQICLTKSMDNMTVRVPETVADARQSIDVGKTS

variants of: B1; assay: scaled log2 fold change in cell abundance, elesclomol vs control (0 = silent mean, 1 = nonsense mean) (scaled log2 ratio); higher = higher viability under elesclomol (loss of FDX1 cuproptosis function); settings: with ABC1 FDX1 KO; elesclomol 5 nM; glucose 10 mM; 14 days;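 also: variant abundance is its share of total variant reads in each endpoint sample, from next-generation sequencing of the integrated ORF PCR-amplified out of genomic DNA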
# Lookup of reported scaled log2 fold change keyed by entry
PROPERTY_LABEL: scaled log2 fold change

[[record]]
variant_string = "F103K"
property_label = "scaled log2 fold change"
observed_value = 1.2

[[record]]
variant_string = "S54V"
property_label = "scaled log2 fold change"
observed_value = -0.108

[[record]]
variant_string = "L110I"
property_label = "scaled log2 fold change"
observed_value = -0.0941

[[record]]
variant_string = "K84C"
property_label = "scaled log2 fold change"
observed_value = 0.225

[[record]]
variant_string = "T81R"
property_label = "scaled log2 fold change"
observed_value = 0.181

[[record]]
variant_string = "I178M"
property_label = "scaled log2 fold change"
observed_value = -0.147

[[record]]
variant_string = "G143L"
property_label = "scaled log2 fold change"
observed_value = -0.0816

[[record]]
variant_string = "V167D"
property_label = "scaled log2 fold change"
observed_value = 0.489

[[record]]
variant_string = "T114R"
property_label = "scaled log2 fold change"
observed_value = 0.517

[[record]]
variant_string = "V85S"
property_label = "scaled log2 fold change"
observed_value = 0.131

[[record]]
variant_string = "S184I"
property_label = "scaled log2 fold change"
observed_value = 0.126

[[record]]
variant_string = "T78Y"
property_label = "scaled log2 fold change"
observed_value = -0.386

[[record]]
variant_string = "D91N"
property_label = "scaled log2 fold change"
observed_value = 0.109

[[record]]
variant_string = "E64C"
property_label = "scaled log2 fold change"
observed_value = -0.0781

[[record]]
variant_string = "Q176A"
property_label = "scaled log2 fold change"
observed_value = 0.239

[[record]]
variant_string = "V16W"
property_label = "scaled log2 fold change"
observed_value = -0.405

[[record]]
variant_string = "S177H"
property_label = "scaled log2 fold change"
observed_value = 0.139

[[record]]
variant_string = "G44K"
property_label = "scaled log2 fold change"
observed_value = 0.187

[[record]]
variant_string = "P168V"
property_label = "scaled log2 fold change"
observed_value = 0.143

[[record]]
variant_string = "L53V"
property_label = "scaled log2 fold change"
observed_value = 0.281

[[record]]
variant_string = "A172Q"
property_label = "scaled log2 fold change"
observed_value = 0.194

[[record]]
variant_string = "T145H"
property_label = "scaled log2 fold change"
observed_value = -0.157

[[record]]
variant_string = "I154A"
property_label = "scaled log2 fold change"
observed_value = 0.161

[[record]]
variant_string = "R23Y"
property_label = "scaled log2 fold change"
observed_value = -0.603

[[record]]
variant_string = "T164S"
property_label = "scaled log2 fold change"
observed_value = -0.253

[[record]]
variant_string = "N162T"
property_label = "scaled log2 fold change"
observed_value = -0.0302

[[record]]
variant_string = "V92N"
property_label = "scaled log2 fold change"
observed_value = 0.121

[[record]]
variant_string = "C112R"
property_label = "scaled log2 fold change"
observed_value = 1.08

[[record]]
variant_string = "T114C"
property_label = "scaled log2 fold change"
observed_value = 0.158

[[record]]
variant_string = "R166P"
property_label = "scaled log2 fold change"
observed_value = 1.06

[[record]]
variant_string = "D179P"
property_label = "scaled log2 fold change"
observed_value = -0.26

[[record]]
variant_string = "F71K"
property_label = "scaled log2 fold change"
observed_value = 1.18

[[record]]
variant_string = "F119Y"
property_label = "scaled log2 fold change"
observed_value = 0.389

[[record]]
variant_string = "I178T"
property_label = "scaled log2 fold change"
observed_value = 0.00283

[[record]]
variant_string = "L38S"
property_label = "scaled log2 fold change"
observed_value = -0.172

[[record]]
variant_string = "P168I"
property_label = "scaled log2 fold change"
observed_value = -0.0742

[[record]]
variant_string = "T170I"
property_label = "scaled log2 fold change"
observed_value = -0.092

[[record]]
variant_string = "V180N"
property_label = "scaled log2 fold change"
observed_value = 0.00503

[[record]]
variant_string = "V16A"
property_label = "scaled log2 fold change"
observed_value = -0.668

[[record]]
variant_string = "A7V"
property_label = "scaled log2 fold change"
observed_value = -0.5

[[record]]
variant_string = "S177E"
property_label = "scaled log2 fold change"
observed_value = -0.0815

[[record]]
variant_string = "S52N"
property_label = "scaled log2 fold change"
observed_value = -0.0586

[[record]]
variant_string = "E77K"
property_label = "scaled log2 fold change"
observed_value = 0.242

[[record]]
variant_string = "A21V"
property_label = "scaled log2 fold change"
observed_value = 0.197

[[record]]
variant_string = "N135A"
property_label = "scaled log2 fold change"
observed_value = -0.0811

[[record]]
variant_string = "D75C"
property_label = "scaled log2 fold change"
observed_value = -0.0427

[[record]]
variant_string = "W24R"
property_label = "scaled log2 fold change"
observed_value = -0.838

[[record]]
variant_string = "S46T"
property_label = "scaled log2 fold change"
observed_value = 0.617

[[record]]
variant_string = "N135R"
property_label = "scaled log2 fold change"
observed_value = -0.532

[[record]]
variant_string = "H26F"
property_label = "scaled log2 fold change"
observed_value = 0.206

[[record]]
variant_string = "D132F"
property_label = "scaled log2 fold change"
observed_value = -0.0218

[[record]]
variant_string = "S14I"
property_label = "scaled log2 fold change"
observed_value = -0.891

[[record]]
variant_string = "I100P"
property_label = "scaled log2 fold change"
observed_value = 0.146

[[record]]
variant_string = "A13H"
property_label = "scaled log2 fold change"
observed_value = 0.0738

[[record]]
variant_string = "I178Y"
property_label = "scaled log2 fold change"
observed_value = -1.49

[[record]]
variant_string = "E134I"
property_label = "scaled log2 fold change"
observed_value = 1.03

[[record]]
variant_string = "D139G"
property_label = "scaled log2 fold change"
observed_value = -0.228

[[record]]
variant_string = "R41E"
property_label = "scaled log2 fold change"
observed_value = 0.0687

[[record]]
variant_string = "E134A"
property_label = "scaled log2 fold change"
observed_value = 0.628

[[record]]
variant_string = "D146W"
property_label = "scaled log2 fold change"
observed_value = 0.114

[[record]]
variant_string = "G19H"
property_label = "scaled log2 fold change"
observed_value = 0.674

[[record]]
variant_string = "T114E"
property_label = "scaled log2 fold change"
observed_value = 0.811

[[record]]
variant_string = "A12C"
property_label = "scaled log2 fold change"
observed_value = 0.0882

[[record]]
variant_string = "L140H"
property_label = "scaled log2 fold change"
observed_value = -1.29

[[record]]
variant_string = "I154Y"
property_label = "scaled log2 fold change"
observed_value = 0.82

[[record]]
variant_string = "R31V"
property_label = "scaled log2 fold change"
observed_value = 0.267

[[record]]
variant_string = "A3T"
property_label = "scaled log2 fold change"
observed_value = 0.122

[[record]]
variant_string = "D139V"
property_label = "scaled log2 fold change"
observed_value = 0.0114

[[record]]
variant_string = "G86P"
property_label = "scaled log2 fold change"
observed_value = 0.208

[[record]]
variant_string = "S56Q"
property_label = "scaled log2 fold change"
observed_value = -0.214

[[record]]
variant_string = "G45N"
property_label = "scaled log2 fold change"
observed_value = 0.148

[[record]]
variant_string = "I118K"
property_label = "scaled log2 fold change"
observed_value = 0.00843

[[record]]
variant_string = "K126N"
property_label = "scaled log2 fold change"
observed_value = -0.104

[[record]]
variant_string = "M137F"
property_label = "scaled log2 fold change"
observed_value = -0.075

[[record]]
variant_string = "I123N"
property_label = "scaled log2 fold change"
observed_value = -0.867

[[record]]
variant_string = "L117Q"
property_label = "scaled log2 fold change"
observed_value = 1.05

[[record]]
variant_string = "K82L"
property_label = "scaled log2 fold change"
observed_value = 0.0365

[[record]]
variant_string = "A21F"
property_label = "scaled log2 fold change"
observed_value = -0.268

[[record]]
variant_string = "G76C"
property_label = "scaled log2 fold change"
observed_value = 0.377

[[record]]
variant_string = "V93M"
property_label = "scaled log2 fold change"
observed_value = 0.416

[[record]]
variant_string = "V94A"
property_label = "scaled log2 fold change"
observed_value = 0.0221

[[record]]
variant_string = "D99Q"
property_label = "scaled log2 fold change"
observed_value = 0.0501

[[record]]
variant_string = "N73I"
property_label = "scaled log2 fold change"
observed_value = -1.24

[[record]]
variant_string = "L89R"
property_label = "scaled log2 fold change"
observed_value = 1.16

[[record]]
variant_string = "A141G"
property_label = "scaled log2 fold change"
observed_value = -0.119

[[record]]
variant_string = "G42H"
property_label = "scaled log2 fold change"
observed_value = 0.257

[[record]]
variant_string = "G45D"
property_label = "scaled log2 fold change"
observed_value = -0.348

[[record]]
variant_string = "A49G"
property_label = "scaled log2 fold change"
observed_value = -0.302

[[record]]
variant_string = "E107A"
property_label = "scaled log2 fold change"
observed_value = 0.00703

[[record]]
variant_string = "R51T"
property_label = "scaled log2 fold change"
observed_value = 0.0589

[[record]]
variant_string = "D87F"
property_label = "scaled log2 fold change"
observed_value = 0.195

